Just for reference, patent US9725442B2 is where these values come from.

Molecular target: UniProtKB Q9Y5Y4
Assay: CRTH2 inhibitory activity in human eosinophil (PGD2 induced eosinophil shape change)
Type: cell-based
Conditions: human peripheral blood, 40 nM PGD2, forward scatter; read-out: IC50, inhibition of PGD2 induced eosinophil shape change
OBSERVATION_TYPE: pIC50
Keep in mind that pIC50 stands for -log10 of concentration in molar terms.

Qu. What measured pIC50 goes with `CCOc1ccc(S(=O)(=O)N2C[C@@H](C)[C@@H](n3nc(CC(=O)O)c4ccccc43)C2)cc1` ?
Ans. 7.17

Qu. What measured pIC50 goes with CC(C)Oc1ccc(S(=O)(=O)N2C[C@H](n3nc(CC(=O)O)c4ccc(F)cc43)[C@@](C)(F)C2)cc1 (racemic) ?
Ans. 7.48

Qu. What measured pIC50 goes with `CC(C)Oc1ccc(S(=O)(=O)N2C[C@H](n3nc(CC(=O)O)c4ccc(F)cc43)C[C@H]2C#N)cc1` ?
Ans. 7.47

Qu. What measured pIC50 goes with `CCOc1ccc(S(=O)(=O)N2C[C@@H](C)[C@@H](n3nc(CC(=O)O)c4ccccc43)C2)cn1` ?
Ans. 6.57

Qu. What measured pIC50 goes with `CC(C)Oc1ccc(S(=O)(=O)N2C[C@@H](C)[C@@H](n3nc(CC(=O)O)c4ccc(F)cc43)C2)cc1` ?
Ans. 7.82

Qu. What measured pIC50 goes with `CC(C)Oc1ccc(S(=O)(=O)N2C[C@@H](C)[C@@H](n3nc(CC(=O)O)c4ccc(F)cc43)C2)cn1` ?
Ans. 7.22

Qu. What measured pIC50 goes with `CC(C)Oc1ccc(S(=O)(=O)N2C[C@H](C)[C@@H](n3nc(CC(=O)O)c4ccc(F)cc43)C2)cc1` ?
Ans. 7.89

Qu. What measured pIC50 goes with `CC(C)Oc1ccc(S(=O)(=O)N2C[C@@H](C)[C@@H](n3nc(CC(=O)O)c4ccc(C(F)(F)F)cc43)C2)cc1` ?
Ans. 7.34

----------
Task for the reader: assign each of the following molecules its reported pIC50.
Molecular target: Human DP1 receptor (Homo sapiens (Human))
Sequence (Q13258 whole entry): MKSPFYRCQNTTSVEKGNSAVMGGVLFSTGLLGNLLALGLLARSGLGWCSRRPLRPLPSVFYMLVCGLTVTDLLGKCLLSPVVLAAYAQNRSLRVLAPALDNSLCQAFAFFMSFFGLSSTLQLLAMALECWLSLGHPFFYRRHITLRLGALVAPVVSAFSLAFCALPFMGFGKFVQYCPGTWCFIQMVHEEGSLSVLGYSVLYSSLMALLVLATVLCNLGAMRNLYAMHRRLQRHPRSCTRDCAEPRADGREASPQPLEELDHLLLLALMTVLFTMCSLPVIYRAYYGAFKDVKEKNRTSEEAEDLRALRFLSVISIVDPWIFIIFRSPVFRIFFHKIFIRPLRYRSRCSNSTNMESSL
Experiment: Human DP1 inhibitory activity in DP1-expressing cell (PGD2-induced cAMP)
Format: cell-based
Details: IC50 of PGD2 (60 nM)-induced cAMP increase, human DP1 receptor expressing Jurkut cell
Keep in mind that pIC50 stands for -log10 of concentration in molar terms.

Qu. What measured pIC50 goes with CC(C)Oc1ccc(S(=O)(=O)N2C[C@H](n3nc(CC(=O)O)c4ccc(F)cc43)C[C@@H]2C(N)=O)cc1 [Compound I-3] ?
Ans. 6.46

Qu. What measured pIC50 goes with CC(C)Oc1ccc(S(=O)(=O)N2C[C@@H](C)[C@@H](n3nc(CC(=O)O)c4cc5c(cc43)OCO5)C2)cc1 [Compound I-174] ?
Ans. 7.00

Qu. What measured pIC50 goes with CCOc1ccc(S(=O)(=O)N2C[C@H](n3nc(CC(=O)O)c4ccccc43)C[C@@H]2C#N)cc1 [Compound I-322] ?
Ans. 7.54

Qu. What measured pIC50 goes with CC(C)Oc1ccc(S(=O)(=O)N2C[C@@H](C)[C@@H](n3nc(CC(=O)O)c4ccc(F)cc43)C2)cn1 [Compound I-123] ?
Ans. 7.51

Qu. What measured pIC50 goes with CCOc1ccc(S(=O)(=O)N2C[C@@H](C)[C@@H](n3nc(CC(=O)O)c4ccccc43)C2)cn1 [Compound I-96] ?
Ans. 7.40

Qu. What measured pIC50 goes with CCOc1ncc(S(=O)(=O)N2C[C@@H](C)[C@@H](n3nc(CC(=O)O)c4ccc(F)cc43)C2)s1 [Compound I-166] ?
Ans. 7.49

Qu. What measured pIC50 goes with CCOc1ccc(S(=O)(=O)N2C[C@@H](C)[C@@H](n3nc(CC(=O)O)c4ccccc43)C2)c(N)c1 [Compound I-325] ?
Ans. 7.62

----------
Molecular target: CRTH2 (Homo sapiens (Human), UniProt Q9Y5Y4)
Sequence (Q9Y5Y4 whole entry): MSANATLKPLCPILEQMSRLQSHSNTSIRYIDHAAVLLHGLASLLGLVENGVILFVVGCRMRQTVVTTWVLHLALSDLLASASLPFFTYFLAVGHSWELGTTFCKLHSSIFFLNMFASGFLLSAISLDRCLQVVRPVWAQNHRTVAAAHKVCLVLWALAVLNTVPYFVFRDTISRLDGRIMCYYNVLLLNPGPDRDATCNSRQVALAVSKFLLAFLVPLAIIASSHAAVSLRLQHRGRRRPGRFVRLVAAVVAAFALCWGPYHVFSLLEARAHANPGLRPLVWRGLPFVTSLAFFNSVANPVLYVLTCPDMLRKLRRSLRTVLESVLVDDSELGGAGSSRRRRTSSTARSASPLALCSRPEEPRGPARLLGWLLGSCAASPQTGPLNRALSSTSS
Assay: CRTH2 receptor binding inhibitory activity ([3H]-PGD2 displacement, membranes of CRTH2-expressing K562 cell)
Conditions: CRTH2 receptor binding, [3H]-PGD2 displacement, membrane of CRTH2-expressing K562 cell; categorized AAAA/AAA; read-out: Ki
Experimental: Cell membrane was prepared from CRTH2-expressing K562 cell. The cell membrane (20 μg/well) was mixed with reaction buffer (50 mM Tris/HCl, pH 7.4, 10 mM MgCl2). Then, [^3H]-PGD2 was added to the mixture and incubated for 60 min at room temperature. […] Then, the mixture was filtrated with glass paper immediately. The filter paper was washed several times and radio activity on the filter was measured. […] Ki values for each compound were calculated from displacement curve.
pKi: −log10 of the molar value.
OBSERVATION_TYPE: pKi

Qu. What measured pKi goes with `CC(C)Oc1ccc(S(=O)(=O)N2C[C@H](n3nc(CC(=O)O)c4ccc(F)cc43)C[C@@H]2COc2cccc(I)c2)cc1` ?
Ans. 5.30 to 7.00

Qu. What measured pKi goes with `CCOc1ccc(S(=O)(=O)N2C[C@@H](n3nc(CC(=O)O)c4ccccc43)[C@](C)(F)C2)cc1` ?
Ans. 5.30 to 7.00

Qu. What measured pKi goes with `CC(C)Oc1ccc(S(=O)(=O)N2C[C@H](n3nc(CC(=O)O)c4ccc(F)cc43)C[C@@H]2CCc2ccccc2)cc1` ?
Ans. > 7.00

Qu. What measured pKi goes with `[2H]c1ccc2c(c1)c(CC(=O)O)nn2[C@H]1CN(S(=O)(=O)c2ccc(OCC)cc2)C[C@H]1C` ?
Ans. > 7.00

Qu. What measured pKi goes with `CCOc1ccc(S(=O)(=O)N2C[C@@H](C)[C@@H](n3nc(CC(=O)O)c4ccc(C)cc43)C2)cn1` ?
Ans. > 7.00

Qu. What measured pKi goes with C[C@]1(F)CN(S(=O)(=O)c2ccc(F)cc2)C[C@@H]1n1nc(CC(=O)O)c2ccccc21 (racemic) ?
Ans. > 7.00

Qu. What measured pKi goes with `CCOc1ccc(S(=O)(=O)N2C[C@@H](C)[C@@H](n3nc(CC(=O)O)c4ccc(N5CCOCC5)cc43)C2)cc1` ?
Ans. 5.30 to 7.00

Qu. What measured pKi goes with `CC(C)Oc1ccc(S(=O)(=O)N2C[C@@H](C)[C@@H](n3nc(CC(=O)O)c4ccc(F)cc43)C2)c(F)c1` ?
Ans. > 7.00

Qu. What measured pKi goes with `CCOc1ccc(S(=O)(=O)N2C[C@H](n3nc(CC(=O)O)c4ccccc43)C[C@@H]2CF)cc1` ?
Ans. 5.30 to 7.00

Qu. What measured pKi goes with `CC#CCOC[C@H]1C[C@@H](n2nc(CC(=O)O)c3ccc(F)cc32)CN1S(=O)(=O)c1ccc(OC(C)C)cc1` ?
Ans. 5.30 to 7.00

Qu. What measured pKi goes with `CC(C)Oc1ccc(S(=O)(=O)N2C[C@@H](C)[C@@H](n3nc(CC(=O)O)c4ccc(F)cc43)C2)nc1` ?
Ans. > 7.00

Qu. What measured pKi goes with `CC(C)Oc1ccc(S(=O)(=O)N2C[C@H](C)[C@@H](n3nc(CC(=O)O)c4cccc(F)c43)C2)cc1` ?
Ans. > 7.00

Qu. What measured pKi goes with `CCOc1ccc(S(=O)(=O)N2C[C@@H](C)[C@@H](n3nc(Cc4noc(=O)[nH]4)c4ccccc43)C2)cc1` ?
Ans. 5.30 to 7.00

Qu. What measured pKi goes with `COc1ccc(S(=O)(=O)N2C[C@@H](C)[C@@H](n3nc(CC(=O)O)c4ccccc43)C2)s1` ?
Ans. > 7.00

----------
Task for the reader: assign each of the following compounds its reported pIC50.
Target: UniProt:Q13258
Assay: Human DP1 inhibitory activity in DP1-expressing cell (PGD2-induced cAMP)
Assay type: cell-based
Conditions: IC50 of PGD2 (60 nM)-induced cAMP increase, human DP1 receptor expressing Jurkut cell
Keep in mind that pIC50 stands for -log10 of concentration in molar terms.

Qu. What measured pIC50 goes with `CCOc1ccc(S(=O)(=O)N2C[C@H](n3nc(CC(=O)O)c4ccccc43)CC23COC3)cc1` ?
Ans. 6.92

Qu. What measured pIC50 goes with `CC(C)Oc1ccc(S(=O)(=O)N2C[C@H](n3nc(CC(=O)O)c4ccc(F)cc43)C[C@H]2C#N)cc1` ?
Ans. 7.64

Qu. What measured pIC50 goes with `CCOc1ccc(S(=O)(=O)N2C[C@@H](C)[C@@H](n3nc(CC(=O)O)c4ccc(C5=CCCCC5)cc43)C2)cc1` ?
Ans. 7.49

Qu. What measured pIC50 goes with `Cc1ccc(S(=O)(=O)N2C[C@@H](C)[C@@H](n3c(C)c(CC(=O)O)c4ccccc43)C2)cc1` ?
Ans. 7.00

Qu. What measured pIC50 goes with `CC(C)Oc1ccc(S(=O)(=O)N2C[C@@H](C)[C@@H](n3cc(CC(=O)O)c4ccc(F)cc43)C2)cc1` ?
Ans. 8.33

Qu. What measured pIC50 goes with `Cc1c(CC(=O)O)c2ccccc2n1[C@@H]1C[C@H](C)N(S(=O)(=O)c2ccc(OC(F)F)cc2)C1` ?
Ans. 6.96

Qu. What measured pIC50 goes with `CCOc1ccc(S(=O)(=O)N2C[C@@H](C)[C@@H](n3nc(CC(=O)O)c4cc(C#N)ccc43)C2)cn1` ?
Ans. 6.85

Qu. What measured pIC50 goes with `CCOc1ccc(S(=O)(=O)N2C[C@@H](C)[C@@H](n3nc(C4(C(=O)O)CC4)c4ccccc43)C2)cc1` ?
Ans. 7.46

Qu. What measured pIC50 goes with `CC(C)Oc1ccc(S(=O)(=O)N2C[C@@H](C)[C@@H](n3nc(CC(=O)O)c4ccc(F)cc43)C2)cc1` ?
Ans. 8.00

Qu. What measured pIC50 goes with `CC(C)Oc1ccc(S(=O)(=O)N2C[C@@H](C)[C@@H](n3nc(CC(=O)O)c4ccc(C(F)(F)F)cc43)C2)cn1` ?
Ans. 7.51

Qu. What measured pIC50 goes with `CO/N=C/[C@H]1C[C@@H](n2nc(CC(=O)O)c3ccc(F)cc32)CN1S(=O)(=O)c1ccc(OC(C)C)cc1` ?
Ans. 7.25

Qu. What measured pIC50 goes with `CCOc1ccc(S(=O)(=O)N2C[C@@H](C)[C@@H](n3nc(CC(=O)O)c4ccc(N5CCCC5)cc43)C2)cn1` ?
Ans. 7.02

Qu. What measured pIC50 goes with `C[C@@H]1CN(S(=O)(=O)c2ccc(OC(F)(F)F)cc2)C[C@@H]1n1nc(CC(=O)O)c2ccc(Cl)cc21` ?
Ans. 8.00

Qu. What measured pIC50 goes with `CCOc1ccc(S(=O)(=O)N2C[C@@H](C)[C@@H](n3nc(CC(=O)O)c4c(F)cccc43)C2)cc1` ?
Ans. 7.70
